Recorded measurements of Max ΔF/F0, one per entry
Molecular target: human TAS1R2-WT/TAS1R3-T716M (Homo sapiens, UniProt Q7RTX0+Q8TE23, T716M)
Construct: expressed in transfected cells; host or cells: HEK293T stably expressing Gα16gust44
Assay: Calcium mobilisation assay, TAS1R2-WT with TAS1R3 variant T716M
Assay type: cell-based
Conditions: maximal signal amplitude
property: Max ΔF/F0

{"compound": "CC1=CC(=O)NS(=O)(=O)O1", "measured": "0.30 ± 0.01"}
{"compound": "COC(=O)[C@H](Cc1ccccc1)NC(=O)[C@H](CC(=O)O)NCCC(C)(C)C", "measured": "0.54 ± 0.01"}
{"compound": "COc1ccc(CCC(=O)c2c(O)cc(O[C@@H]3O[C@H](CO)[C@@H](O)[C@H](O)[C@H]3O[C@@H]3O[C@@H](C)[C@H](O)[C@@H](O)[C@H]3O)cc2O)cc1O [NHDC, neohesperidin dihydrochalcone]", "measured": "0.84 ± 0.09"}

###

Recorded measurements of Max ΔF/F0, one per entry
Molecular target: human TAS1R2-WT/TAS1R3-A735T (Homo sapiens, UniProt Q7RTX0+Q8TE23, A735T)
Construct: expressed in transfected cells; host or cells: HEK293T stably expressing Gα16gust44
Sequence (Q8TE23 20-839): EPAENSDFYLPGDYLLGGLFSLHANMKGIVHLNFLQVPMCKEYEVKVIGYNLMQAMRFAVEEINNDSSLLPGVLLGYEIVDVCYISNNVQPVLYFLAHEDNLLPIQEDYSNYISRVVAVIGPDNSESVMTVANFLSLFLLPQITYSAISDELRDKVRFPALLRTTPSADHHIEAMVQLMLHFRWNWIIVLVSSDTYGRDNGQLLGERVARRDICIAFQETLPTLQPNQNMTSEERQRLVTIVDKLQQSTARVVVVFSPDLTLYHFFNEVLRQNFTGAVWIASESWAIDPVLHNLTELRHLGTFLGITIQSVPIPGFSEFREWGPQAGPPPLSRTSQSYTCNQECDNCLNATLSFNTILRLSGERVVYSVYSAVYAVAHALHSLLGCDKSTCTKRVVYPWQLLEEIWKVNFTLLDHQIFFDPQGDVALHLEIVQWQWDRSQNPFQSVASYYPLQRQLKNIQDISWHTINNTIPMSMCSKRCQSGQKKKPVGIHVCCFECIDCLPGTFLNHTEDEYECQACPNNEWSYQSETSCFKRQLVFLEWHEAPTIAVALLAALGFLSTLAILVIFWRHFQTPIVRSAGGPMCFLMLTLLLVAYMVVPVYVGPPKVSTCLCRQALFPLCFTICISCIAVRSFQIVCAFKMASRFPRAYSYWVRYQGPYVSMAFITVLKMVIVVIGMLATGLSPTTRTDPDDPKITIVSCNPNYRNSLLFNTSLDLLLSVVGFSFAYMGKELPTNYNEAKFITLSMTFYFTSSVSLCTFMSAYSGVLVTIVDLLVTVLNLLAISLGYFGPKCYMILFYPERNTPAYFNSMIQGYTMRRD
Sequence (Q7RTX0 21-852 A735T): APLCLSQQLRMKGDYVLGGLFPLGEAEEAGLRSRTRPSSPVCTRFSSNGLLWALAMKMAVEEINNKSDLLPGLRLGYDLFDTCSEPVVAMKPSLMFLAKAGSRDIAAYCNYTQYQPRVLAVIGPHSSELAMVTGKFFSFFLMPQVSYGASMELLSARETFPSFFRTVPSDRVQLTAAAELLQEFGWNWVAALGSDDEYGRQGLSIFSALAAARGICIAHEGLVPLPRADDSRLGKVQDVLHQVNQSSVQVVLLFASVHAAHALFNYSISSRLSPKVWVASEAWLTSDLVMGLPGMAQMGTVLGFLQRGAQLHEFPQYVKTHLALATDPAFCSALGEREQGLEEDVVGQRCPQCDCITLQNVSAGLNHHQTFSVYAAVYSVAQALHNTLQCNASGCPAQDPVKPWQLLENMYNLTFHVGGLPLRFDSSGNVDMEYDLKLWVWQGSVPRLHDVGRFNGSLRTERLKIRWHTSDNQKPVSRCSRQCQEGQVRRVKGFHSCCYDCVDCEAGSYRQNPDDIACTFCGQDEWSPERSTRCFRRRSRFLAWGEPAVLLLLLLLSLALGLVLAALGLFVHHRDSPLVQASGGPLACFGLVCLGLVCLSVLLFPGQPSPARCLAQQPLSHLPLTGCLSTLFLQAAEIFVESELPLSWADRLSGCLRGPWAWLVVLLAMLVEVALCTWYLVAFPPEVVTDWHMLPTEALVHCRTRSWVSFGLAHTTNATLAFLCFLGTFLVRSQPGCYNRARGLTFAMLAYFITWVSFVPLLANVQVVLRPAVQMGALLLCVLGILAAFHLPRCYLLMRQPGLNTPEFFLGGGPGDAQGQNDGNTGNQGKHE
Assay: Calcium mobilisation assay, TAS1R2-WT with TAS1R3 variant A735T
Type: cell-based
Settings: maximal signal amplitude
property: Max ΔF/F0

{"compound": "C=C(C)[C@@H]1CC=C(/C=N/O)CC1", "measured": "1.56 ± 0.23"}
{"compound": "C=C1C[C@@]23CC[C@H]4[C@@](C)(CCC[C@@]4(C)C(=O)O[C@@H]4O[C@H](CO)[C@@H](O)[C@H](O[C@@H]5O[C@H](CO)[C@@H](O)[C@H](O)[C@H]5O)[C@H]4O[C@@H]4O[C@H](CO)[C@@H](O)[C@H](O)[C@H]4O)[C@@H]2CC[C@]1(O[C@@H]1O[C@H](CO)[C@@H](O)[C@H](O[C@@H]2O[C@H](CO)[C@@H](O)[C@H](O)[C@H]2O)[C@H]1O[C@@H]1O[C@H](CO)[C@@H](O)[C@H](O)[C@H]1O)C3 [Rebaudioside M, rebaudioside M]", "measured": "1.24 ± 0.04"}
{"compound": "C[C@H](CC[C@@H](O[C@@H]1O[C@H](CO[C@@H]2O[C@H](CO)[C@@H](O)[C@H](O)[C@H]2O)[C@@H](O)[C@H](O)[C@H]1O[C@@H]1O[C@H](CO)[C@@H](O)[C@H](O)[C@H]1O)C(C)(C)O)[C@H]1CC[C@@]2(C)[C@@H]3CC=C4[C@@H](CC[C@H](O[C@@H]5O[C@H](CO[C@@H]6O[C@H](CO)[C@@H](O)[C@H](O)[C@H]6O)[C@@H](O)[C@H](O)[C@H]5O)C4(C)C)[C@]3(C)[C@H](O)C[C@]12C [Mogroside V, mogroside V]", "measured": "1.17 ± 0.03"}
{"compound": "OC[C@H]1O[C@H](O[C@]2(CCl)O[C@H](CCl)[C@@H](O)[C@@H]2O)[C@H](O)[C@@H](O)[C@H]1Cl", "measured": "0.70 ± 0.01"}

Data provenance is paper PMC11945486.
